Assay: Solubility measurement of opiranserin hydrochloride according to solvents (HPLC)
Assay type: physicochemical
Details: 6 w/v % Triacetin, 25 °C, aqueous with cosolvent or surfactant or cyclodextrin, thermodynamic from solid, Solvent 15: 6 w/v % Triacetin; 25° C./7 days
Description: An excess amount of opiranserin hydrochloride was added to the solvents shown in Table 1, stirred under the following conditions, centrifuged and filtered, and the filtrate was diluted. The solubility of the drug was measured using high-performance liquid chromatography (HPLC).
Structures can show the parent of a compound that is named as a salt.
measured_property: solubility at 7 days (mg/mL)
Report as a plain number; the unit mg/mL is understood.

Which solubility at 7 days reading was recorded for the molecule CCCCOc1c(OC)cc(C(=O)NCC2(N(C)C)CCOCC2)cc1OC [Opiranserin hydrochloride] ? 72.7

* * *

Test: Solubility measurement of opiranserin hydrochloride according to solvents (HPLC)
Format: physicochemical
Details: 1 w/v % Triacetin, 40 °C, water, thermodynamic from solid, Solvent 19: 1 w/v % Triacetin; 40° C./3 hours
Structures can show the parent of a compound that is named as a salt.
measured_property: solubility at 3 h

Which solubility at 3 h reading was recorded for the molecule CCCCOc1c(OC)cc(C(=O)NCC2(N(C)C)CCOCC2)cc1OC [Opiranserin hydrochloride] ? 78.6 mg/mL

* * *

Assay: Solubility measurement of opiranserin hydrochloride according to solvents (HPLC)
Format: physicochemical
Settings: 100% Propylene glycol, 25 °C, organic solvent or mixture, thermodynamic from solid, Solvent 4: 100% Propylene glycol; 25° C./7 days
Structures can show the parent of a compound that is named as a salt.
measured_property: solubility at 7 days

Which solubility at 7 days reading was recorded for the compound CCCCOc1c(OC)cc(C(=O)NCC2(N(C)C)CCOCC2)cc1OC [Opiranserin hydrochloride] ? 13 mg/mL

* * *

Assay: Solubility measurement of opiranserin hydrochloride according to solvents (HPLC)
Assay type: physicochemical
Conditions: 3 w/v % PEG-6 caprylic/capric glyceride, 25 °C, aqueous with cosolvent or surfactant or cyclodextrin, thermodynamic from solid, Solvent 17: 3 w/v % PEG-6 caprylic/capric glyceride; 25° C./7 days
Structures can show the parent of a compound that is named as a salt.
measured_property: solubility at 7 days
Answer with the value and then the unit.

Which solubility at 7 days reading was recorded for the compound CCCCOc1c(OC)cc(C(=O)NCC2(N(C)C)CCOCC2)cc1OC [Opiranserin hydrochloride] ? 57 mg/mL

* * *

Experiment: Solubility measurement of opiranserin hydrochloride according to solvents (HPLC)
Assay type: physicochemical
Conditions: 1 w/v % Polyoxyl 35 castor oil, 25 °C, aqueous with cosolvent or surfactant or cyclodextrin, thermodynamic from solid, Solvent 6: 1 w/v % Polyoxyl 35 castor oil; 25° C./7 days
Structures can show the parent of a compound that is named as a salt.
measured_property: solubility at 7 days (mg/mL)
Report as a plain number; the unit mg/mL is understood.

Which solubility at 7 days reading was recorded for the molecule CCCCOc1c(OC)cc(C(=O)NCC2(N(C)C)CCOCC2)cc1OC [Opiranserin hydrochloride] ? 42.1
